System: Staphylococcus aureus
METHOD_SUMMARY: Antibiofilm activity (crystal violet, A490)
Format: cell-based
CONDITIONS_USED: biofilm, read-out: MBEC
REPORTED_METRIC: minimal effective concentration (µg/mL)
Just the number in µg/mL, nothing appended.

Look over these answered cases.
O=C(/C=C/c1cc(Cl)c2cccccc1-2)c1ccc2cccccc1-2 | 625
O=C(/C=C/c1cc(Br)c2cccccc1-2)c1ccc2cccccc1-2 | 1250
O=C(/C=C/c1ccc2cccccc1-2)c1ccc(O)cc1 | 1250
Cc1cc(/C=C/C(=O)c2ccc3cccccc2-3)c2cccccc1-2 | 625
O=C(/C=C/c1ccc2cccccc1-2)c1cccc2ccccc12 | 1250
Cc1cc(C(=O)/C=C/c2ccc3cccccc2-3)c2cccccc1-2 | 1250
O=C(/C=C/c1ccc2cccccc1-2)c1ccc2cccccc1-2 [Compound 6, (E)-1,3-Di(azulen-1-yl)prop-2-en-1-one] | 625
Nc1ccc(C(=O)/C=C/c2ccc3cccccc2-3)cc1 | 2500

Pending molecule:
Exam item: Entry under review: O=C(/C=C/c1ccc2cccccc1-2)c1ccc2ccccc2c1 . Reported minimal effective concentration?
Marked response: 2500
